- target.entity: T1, SWSAP1 K18A (Walker A);hSWS1 (Homo sapiens;Homo sapiens, UniProt Q6NVH7;Q19AV6 22-250;1-140, K39A|)
- T1 sequence 1: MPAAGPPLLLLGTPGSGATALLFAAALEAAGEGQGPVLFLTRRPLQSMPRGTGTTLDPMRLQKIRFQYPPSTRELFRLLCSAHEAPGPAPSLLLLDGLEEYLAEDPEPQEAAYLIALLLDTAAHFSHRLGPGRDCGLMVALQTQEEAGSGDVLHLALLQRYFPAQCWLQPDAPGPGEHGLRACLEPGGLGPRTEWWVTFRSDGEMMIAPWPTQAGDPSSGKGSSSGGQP
- T1 sequence 2: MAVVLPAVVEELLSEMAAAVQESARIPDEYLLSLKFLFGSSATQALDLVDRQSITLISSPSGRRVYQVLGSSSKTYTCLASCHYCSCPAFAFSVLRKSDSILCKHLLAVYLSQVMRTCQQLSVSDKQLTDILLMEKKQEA
- method.notes: fluorescence polarization; no nucleotide; FPA: 5 nM 6-FAM DNA, 37 C, 2 mM nucleotide where stated (buffer not given in material); EMSA: 0.05 uM 6-FAM DNA, 5%/15% native PAGE; RAD51 filaments: 2 mM ATP
- conditions.used: protein: recombinant;recombinant; tags: N-terminal 6xHis-TEV, cleaved;none; copies: 1;1; label: 3' 6-FAM
pKd: −log10 of the molar value.
property.measured: pKd

# binder, experimental.result
records = [
    ("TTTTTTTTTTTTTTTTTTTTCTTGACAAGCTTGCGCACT (ssDNA) [ss39]", 5.00),
]

Where do these numbers come from? They come from paper PMC12167799.
